The measurements presented in this section are drawn from patent US20030068675.

# System Under Test: T1, ZFP SBS#602 (synthetic)
# T1 chain: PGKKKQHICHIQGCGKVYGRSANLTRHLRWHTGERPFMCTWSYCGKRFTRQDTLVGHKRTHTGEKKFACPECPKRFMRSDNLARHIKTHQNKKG
# Assay Notes: EMSA
# Details: tags: MBP fusion
Experimental Readout: pKd
Give only the number. pKd is defined as minus log10 of concentration in molar units.

Fill in the blank: the reported pKd of GAGTCGGAA (dsDNA) DNA 1: GAGTCGGAA DNA 2: TTCCGACTC is ____.
6.21
